- System: N5-12G6 riboswitch
- method.notes: Firefly luciferase assay, N5-12G6 riboswitch in HEK293 cells
- particulars: Homo sapiens, HEK293, read-out: Fold induction 2 μM (HEK), 12G6 riboswitch, luciferase, HEK293, 2 μM
assay.endpoint: fold induction at 2 µM
Kindly provide the number alone.

Input line: Note fold induction at 2 µM for the compound shown: Clc1cc2nccnc2cc1CNc1cnccc1N1CC2CNCC2C1 (centres unmarked)
Output line: 8.2

Input line: Name the recorded fold induction at 2 µM of the item Fc1cncc(NCc2cc(F)c3nccnc3c2)c1N1CCNCC1 in your answer.
Output line: 31.2

Input line: Answer with the recorded fold induction at 2 µM for the compound listed here: Fc1cc2nccnc2cc1CNc1cnccc1N1CCNCC1
Output line: 23.5

Input line: Assign fold induction at 2 µM to the following record: Fc1cc2nccnc2cc1CNc1cncc(F)c1N1CCNCC1
Output line: 24.7

Input line: Supply fold induction at 2 µM value. Item: Clc1cncc(NCc2cc(Cl)c3nccnc3c2)c1N1CCNCC1
Output line: 4.1

Input line: Look up and state reported fold induction at 2 µM for Fc1cncc(NCc2ccc3nccnc3c2)c1O[C@@H]1CCNC1
Output line: 54.6

Input line: Supply recorded fold induction at 2 µM for C[C@H]1CNCCN1c1c(Cl)cncc1NCc1ccc2nccnc2c1 here.
Output line: 6

Input line: Consider the compound Fc1c(CNc2cncc(Cl)c2N2CCNCC2)ccc2nccnc12 and give its recorded fold induction at 2 µM.
Output line: 6.1

Input line: Input Cc1cncc(NCc2cc3nccnc3cc2Cl)c1N1CCNCC1 , output reported fold induction at 2 µM.
Output line: 20.9

Input line: Look up and state reported fold induction at 2 µM for Brc1cncc(NCc2ccc3nccnc3c2)c1N1CCNCC1
Output line: 48.6

Input line: Report measured fold induction at 2 µM; entry is Cc1cncc(NCc2ccc3nccnc3c2)c1OC1CNC1
Output line: 31.9

Input line: Report fold induction at 2 µM for Cc1cc(CNc2cnccc2O[C@@H]2CCNC2)cc2nccnc12
Output line: 35.8

Input line: Provide only the value of recorded fold induction at 2 µM for Fc1cncc(NCc2ccc3nccnc3c2)c1N1CCCNCC1
Output line: 34.9

Input line: Fill in fold induction at 2 µM for record Brc1cncc(NCc2ccc3nccnc3c2)c1OC1CNC1
Output line: 40.9

Input line: Fill in reported fold induction at 2 µM for this entry: Fc1cncc(NCc2cc(F)c3nccnc3c2)c1N1CCCNCC1
Output line: 8.9

Input line: For the compound C[C@@H]1CNCCN1c1ccncc1NCc1cc(Cl)c2nccnc2c1 , give its reported fold induction at 2 µM.
Output line: 2

Input line: Please list fold induction at 2 µM recorded for the compound FC(F)(F)c1cc(N2CCNCC2)c(NCc2ccc3nccnc3c2)cn1
Output line: 30.6

Input line: Indicate its recorded fold induction at 2 µM; the compound in question is Fc1cc(CNc2cnccc2N2CCCNCC2)cc2nccnc12
Output line: 2.6

Input line: Query fold induction at 2 µM for C[C@@H]1CN(c2c(Cl)cncc2NCc2ccc3nccnc3c2)CCN1
Output line: 12.9

Input line: Identify measured fold induction at 2 µM associated with C[C@@H]1CNCCN1c1ccncc1NCc1cc2nccnc2cc1Cl
Output line: 8
